Biological target: Nuclear factor NF-kappa-B p105 subunit (Homo sapiens, UniProt P19838)
Sequence (P19838 whole entry): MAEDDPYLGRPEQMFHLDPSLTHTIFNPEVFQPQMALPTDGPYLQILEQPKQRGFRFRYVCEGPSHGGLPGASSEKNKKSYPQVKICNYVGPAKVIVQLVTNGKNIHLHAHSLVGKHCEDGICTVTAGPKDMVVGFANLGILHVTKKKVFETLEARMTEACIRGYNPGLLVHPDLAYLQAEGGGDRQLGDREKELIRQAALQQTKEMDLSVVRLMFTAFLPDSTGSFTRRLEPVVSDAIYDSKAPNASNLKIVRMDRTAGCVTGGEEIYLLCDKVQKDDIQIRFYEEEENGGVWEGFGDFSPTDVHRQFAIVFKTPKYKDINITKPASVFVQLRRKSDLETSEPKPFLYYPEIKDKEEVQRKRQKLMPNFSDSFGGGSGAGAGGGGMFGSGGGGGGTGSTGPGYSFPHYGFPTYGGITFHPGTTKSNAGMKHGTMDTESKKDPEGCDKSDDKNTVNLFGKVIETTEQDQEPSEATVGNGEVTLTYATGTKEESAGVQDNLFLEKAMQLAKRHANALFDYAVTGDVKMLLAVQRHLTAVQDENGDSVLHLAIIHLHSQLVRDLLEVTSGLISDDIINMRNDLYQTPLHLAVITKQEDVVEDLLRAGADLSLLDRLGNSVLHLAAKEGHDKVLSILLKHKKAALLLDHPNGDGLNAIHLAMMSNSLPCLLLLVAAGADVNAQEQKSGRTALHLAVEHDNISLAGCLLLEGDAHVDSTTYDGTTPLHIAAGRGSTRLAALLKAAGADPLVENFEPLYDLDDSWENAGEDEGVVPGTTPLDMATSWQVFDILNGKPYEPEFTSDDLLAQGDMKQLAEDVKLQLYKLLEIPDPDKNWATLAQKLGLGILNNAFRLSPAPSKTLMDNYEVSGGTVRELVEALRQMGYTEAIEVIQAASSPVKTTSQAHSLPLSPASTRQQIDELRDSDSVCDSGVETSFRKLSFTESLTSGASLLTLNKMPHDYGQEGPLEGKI
Experiment: Inhibition of p50 after 1 hr by ELISA
Below, each entry is listed alongside its reported IC50.
measured.property: IC50

# molecule, observed
data = [
    ("COc1c(O)cc2oc3cc(O)c4c(c3c(=O)c2c1CC=C(C)C)OC(C)(C)C(O)C4 (centres undefined)", "> 20 µM"),
    ("COc1cc2oc3cc(O)c(OC)c(CC=C(C)C)c3c(=O)c2c(O)c1CC=C(C)C", "7.5 µM"),
    ("COc1c(O)cc2oc3cc(O)c(CC=C(C)C)c(O)c3c(=O)c2c1CC=C(C)C", "> 20 µM"),
    ("COc1c(O)cc2oc3cc(O)c(CC=C(C)C)c(O)c3c(=O)c2c1CCC(C)(C)O", "> 20 µM"),
    ("COc1c(O)cc2oc3cc4c(c(O)c3c(=O)c2c1CC=C(C)C)[C@@H](c1c(O)c(CC=C(C)C)c(O)c2c(=O)c3c(CC=C(C)C)c(OC)c(O)cc3oc12)[C@H](C(C)(C)O)O4", "> 20 µM"),
    ("CC(C)=CCc1c(O)c(CC=C(C)C)c2oc3c(O)cccc3c(=O)c2c1O", "> 20 µM"),
    ("COc1cc2oc3cc(O)c(OC)c(CC=C(C)C)c3c(=O)c2c2c1CC(O)C(C)(C)O2 (centres undefined)", "> 20 µM"),
    ("COc1c(O)cc2oc3cc4c(c(O)c3c(=O)c2c1CC=C(C)C)C=CC(C)(C)O4", "> 20 µM"),
    ("CC(C)=CCc1c(O)c(CC=C(C)C)c2oc3c(O)ccc(O)c3c(=O)c2c1O", "> 20 µM"),
]
